PROPERTY: pIC50
Keep it numeric: pIC50 is minus log10 of the concentration in mol/L.

Query string: Please indicate recorded pIC50 of CNc1nc(C(F)(F)F)nc2c1ncn2Cc1ccccc1F measured with cGMP-specific 3',5'-cyclic phosphodiesterase (Homo sapiens, UniProt O76074).
Result string: 5.30

* * *

# SUBJECT_OF_TEST: Phosphodiesterase 4 (Homo sapiens, UniProt P27815+Q08499+Q07343+Q08493)
# METHOD_DESCRIPTION: Inhibition of phosphodiesterase 4 at 1 uM cAMP
# Type: protein assay
PROPERTY: log10(IC50) (log10 of the value in µM)
Record value = log10 of IC50 given in µM.

Query string: Quick one: give measured log10(IC50) for Nc1ncnc2c1ncn2Cc1ccccc1 [9-BENZYL-9H-ADENINE]
Result string: 2.20

Query string: Quick one: give measured log10(IC50) for CNc1ncnc2c1ncn2Cc1ccccc1.CS(=O)(=O)O
Result string: 0.66

Query string: Quick one: give measured log10(IC50) for CNc1ncnc2c1nc(C)n2Cc1ccccc1F.CS(=O)(=O)O
Result string: 1.73

Query string: Quick one: give measured log10(IC50) for CN(C)c1nc(C(F)(F)F)nc2c1ncn2Cc1ccccc1
Result string: 1.04

Query string: Quick one: give measured log10(IC50) for Cl.Fc1ccccc1Cn1cnc2c(N3CCCCC3)ncnc21
Result string: 2.08

Query string: Quick one: give measured log10(IC50) for CCCCNc1ncnc2c1ncn2Cc1ccccc1F.Cl
Result string: 1.72

Query string: Quick one: give measured log10(IC50) for CNc1nc(C(F)(F)F)nc2c1ncn2Cc1ccccc1F
Result string: -1.40

Query string: Quick one: give measured log10(IC50) for CNc1nc(C(F)(F)F)nc2c1ncn2CCc1ccccc1
Result string: -0.12

Query string: Quick one: give measured log10(IC50) for CNc1ncnc2c1ncn2Cc1ccccc1F.CS(=O)(=O)O
Result string: 0.48

Query string: Quick one: give measured log10(IC50) for CNc1nc(-c2ccccc2)nc2c1ncn2Cc1ccccc1F.CS(=O)(=O)O
Result string: -0.30

Query string: Quick one: give measured log10(IC50) for Nc1nc(C(F)(F)F)nc2c1ncn2Cc1ccccc1
Result string: 0.26

Query string: Quick one: give measured log10(IC50) for CNc1nc(C)nc2c1ncn2Cc1ccccc1F.CS(=O)(=O)O
Result string: -0.70

Query string: Quick one: give measured log10(IC50) for CNc1nc(C(F)(F)F)nc2c1ncn2C
Result string: 1.04
